Each entry below carries its recorded growth.
- Tested on: MDA-MB-435 melanoma
- Protocol Summary: NCI-60 one-dose screen, 48 h (100 = growth as untreated, 0 = no growth, -100 = all killed)
- Condition Details: 10 µM
- Description: Growth inhibition of the MDA-MB-435 human Melanoma tumor cell line is measured as a screen for anti-cancer activity. Cells are grown in 96 well plates and exposed to the test compound for 48 hours. Compounds are tested at a single concentration, which is 10^-5 M for most compounds. The reported endpoint is percent growth (GI% or GIPRCNT), where numbers from 0 - 100% represent growth inhibition, and numbers from -100% - 0 represent cell death. […]
This is part of a sample that, as a whole, favours compounds with a hit. Of some 83,000 tested, about 20% had one in any assay.
Numeric only. Scale: %

Sure, the documented growth for CC/C(=C(/c1ccc(O)cc1)c1ccc(OCCN(C)C(=O)COCCOCCNC(=O)Cc2ccc3c(c2)CN([C@@H]2CCC(=O)NC2=O)C3=O)cc1)c1ccccc1 is 73.6

Sure, the documented growth for CC/C(=C(\c1ccc(O)cc1)c1ccc(OCCNC)cc1)c1ccccc1 is 74.5

Attention now shifts to the item below.
Sure, the documented growth for CC/C(=C(\c1ccc(O)cc1)c1ccc(OCCN(C)C(=O)COCCNC(=O)Cc2ccc3c(c2)CN([C@@H]2CCC(=O)NC2=O)C3=O)cc1)c1ccccc1 is 59.2

---

Each entry below carries its recorded growth.
- System: MALME-3M melanoma
- Protocol Summary: NCI-60 one-dose screen, 48 h (100 = growth as untreated, 0 = no growth, -100 = all killed)
- Condition Details: 10 µM
Compounds without any hit were thinned out: in the full panel of roughly 83,000, 20% have a hit.
Numeric only. Scale: %

Example cases with answers are listed next.
Sure, the documented growth for CC/C(=C(/c1ccc(O)cc1)c1ccc(OCCN(C)C(=O)CCOCCNC(=O)Cc2ccc3c(c2)CN([C@@H]2CCC(=O)NC2=O)C3=O)cc1)c1ccccc1 is 13.3

Sure, the documented growth for CC/C(=C(/c1ccc(O)cc1)c1ccc(OCCN(C)C(=O)COCCOCCNC(=O)Cc2ccc3c(c2)CN([C@@H]2CCC(=O)NC2=O)C3=O)cc1)c1ccccc1 is 1.5

Sure, the documented growth for CC/C(=C(\c1ccc(O)cc1)c1ccc(OCCNC)cc1)c1ccccc1 is 91

Sure, the documented growth for CC/C(=C(\c1ccc(O)cc1)c1ccc(OCCN(C)C(=O)CCOCCNC(=O)c2ccc3c(c2)CN([C@@H]2CCC(=O)NC2=O)C3=O)cc1)c1ccccc1 is 52.5

Sure, the documented growth for CC/C(=C(/c1ccc(O)cc1)c1ccc(OCCN(C)C(=O)COCCOCCNC(=O)c2ccc3c(c2)CN([C@@H]2CCC(=O)NC2=O)C3=O)cc1)c1ccccc1 is 31.4

---
Sure, the documented growth for CC/C(=C(\c1ccc(O)cc1)c1ccc(OCCN(C)C(=O)COCCNC(=O)Cc2ccc3c(c2)CN([C@@H]2CCC(=O)NC2=O)C3=O)cc1)c1ccccc1 is -13.3

---

- Tested on: TK-10 renal
- Protocol Summary: NCI-60 one-dose screen, 48 h
- Condition Details: 10 µM unless noted
- Description: Growth inhibition of the TK-10 human tumor cell line is measured as a screen for anti-cancer activity. Cells are grown in 96 well plates and exposed to the test compound for 48 hours. Compounds are tested at a single concentration, which is 10^-5 M for most compounds. The reported endpoint is percent growth (GI% or GIPRCNT), where numbers from 0 - 100% represent growth inhibition, and numbers from -100% - 0 represent cell death. For example, a value of 40 represents 60% growth inhibition. […]
Compounds without any hit were thinned out: in the full panel of roughly 83,000, 20% have a hit. Active and inactive are the calls of the source. How the source made its calls: active means growth percent below 10; inactive means the rest.
Hi! Could you answer with just one of these? YES (active), NO (inactive)

The following compounds have reported results that may help.
Dear colleague, could you share the recorded outcome for Fc1ccc(Nc2nnc(-c3c[nH]c4ccccc34)o2)cc1 when you have a moment? NO

Dear colleague, could you share the recorded outcome for O=C(NNC(=O)c1ccc(OCc2nc3ccc(Cl)cc3[nH]2)cc1)Nc1ccc(Cl)c(C(F)(F)F)c1 when you have a moment? NO

Dear colleague, could you share the recorded outcome for C[C@@H](Nc1c(C#N)cnc2ccc(-c3cnc4[nH]ncc4c3)cc12)c1ccccc1 when you have a moment? YES

---
Dear colleague, could you share the recorded outcome for O=C(c1ccc(Cl)cc1)C1[C@H](c2ccccc2Cl)[C@@H](c2ccccc2)NC12C(=O)Nc1ccc(Cl)cc12 (stereo partly specified) when you have a moment? YES

Dear colleague, could you share the recorded outcome for O=C(Nc1ccc(S(=O)(=O)N2CCCCC2)cc1)C(Cl)Cl when you have a moment? NO

Dear colleague, could you share the recorded outcome for COc1ccc(N=Nc2c(N)nn3c(-c4cc5ccccc5oc4=O)ccnc23)cc1 when you have a moment? NO

Dear colleague, could you share the recorded outcome for O=C(NNC(=S)NC(=O)c1ccccc1)c1ccc(OCc2nc3ccc(Cl)cc3[nH]2)cc1 when you have a moment? NO

Dear colleague, could you share the recorded outcome for O=c1c(-c2nc(-c3ccccc3)c(-c3ccccc3)[nH]2)coc2ccc(F)cc12 when you have a moment? NO

Dear colleague, could you share the recorded outcome for C=CC(=O)N1CCN(c2ccc3nc4c(nc3c2C(F)(F)F)C(=O)c2ncccc2C4=O)CC1 when you have a moment? NO
